pIC50 values, listed per item
SYSTEM TESTED: human Arginine Vasopressin Receptor V2 (AVPR2) (Homo sapiens (Human), UniProt P30518)
Sequence (P30518 whole entry): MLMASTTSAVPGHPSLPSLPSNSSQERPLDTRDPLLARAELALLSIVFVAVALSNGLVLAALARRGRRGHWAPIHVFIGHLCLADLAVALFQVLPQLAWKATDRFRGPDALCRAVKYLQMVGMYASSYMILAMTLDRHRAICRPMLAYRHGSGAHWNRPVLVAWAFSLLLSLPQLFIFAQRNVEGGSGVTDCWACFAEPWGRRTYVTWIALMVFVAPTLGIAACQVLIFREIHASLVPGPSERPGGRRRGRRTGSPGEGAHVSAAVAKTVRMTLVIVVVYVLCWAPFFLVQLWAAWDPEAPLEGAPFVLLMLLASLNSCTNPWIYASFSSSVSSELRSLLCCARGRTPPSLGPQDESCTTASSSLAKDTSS
PROTOCOL TEXT: Vasopressin V2 receptor antagonist assay (cAMP TR-FRET, 1321N1 cells)
pIC50: −log10 of the molar value.

# MOLECULE, pIC50
records = [
    ("Clc1ccc2c(c1)CN(C1COC1)Cc1nnc(C3CC4(C3)CN(c3ccccn3)C4)n1-2 [compound 57]", "< 6.00"),
    ("Clc1ccc2c(c1)CN(C1CCC1)Cc1nnc(C3CC4(C3)CN(c3ccccn3)C4)n1-2 [compound 41]", "> 7.00"),
    ("CCOC(=O)N1Cc2cc(Cl)ccc2-n2c(C3CC4(C3)CN(c3ccc(F)cn3)C4)nnc2C1C (stereo not drawn) [compound 169]", "< 6.00"),
    ("COC(=O)N1Cc2cc(Cl)ccc2-n2c(nnc2C2CC3(C2)CN(c2ccccn2)C3)C1 [compound 70]", "6.30 to 7.00"),
    ("CC1c2nnc(C3CC4(C3)CN(c3ncccn3)C4)n2-c2ccc(Cl)cc2CN1C(=O)OC1CC1 (single isomer, unassigned) [Cpd 171B]", "< 6.00"),
    ("COC(=O)N1Cc2cc(Cl)ccc2-n2c(C3CC4(C3)CN(c3ncccc3F)C4)nnc2C1C (stereo not drawn) [compound 182]", "6.00 to 6.30"),
    ("CC1c2nnc(C3CC4(C3)CN(c3ccc(F)cn3)C4)n2-c2ccc(Cl)cc2CN1C (single isomer, unassigned) [Cpd 179A]", "< 6.00"),
    ("CC(CF)N1Cc2cc(Cl)ccc2-n2c(nnc2C2CC3(C2)CN(c2ccccn2)C3)C1 (stereo not drawn) [compound 58]", "6.00 to 6.30"),
    ("O=C(OC1CC1)N1Cc2cc(Cl)ccc2-n2c(nnc2C2CC3(C2)CN(c2ccc(F)cn2)C3)C1 [compound 90]", "< 6.00"),
    ("COC(=O)N1Cc2cc(Cl)ccc2-n2c(C3CC4(C3)CN(c3ccc(F)cn3)C4)nnc2C1C (single isomer, unassigned) [Cpd 142B]", "< 6.00"),
    ("COC(=O)N1Cc2cc(Cl)ccc2-n2c(C3CC4(C3)CN(c3ccc(F)cn3)C4)nnc2C1C (stereo not drawn) [compound 142]", "< 6.00"),
    ("CN1Cc2cc(Cl)ccc2-n2c(nnc2C2CC3(C2)CN(c2ncccc2F)C3)C1 [compound 4]", "< 6.00"),
    ("O=C(C(F)F)N1Cc2cc(Cl)ccc2-n2c(nnc2C2CC3(C2)CN(c2ccccn2)C3)C1 [compound 122]", "6.30 to 7.00"),
    ("CN1Cc2cc(Cl)ccc2-n2c(nnc2C2CC3(C2)CN(c2ccccn2)C3)C1 [compound 2]", "< 6.00"),
    ("CC1c2nnc(C3CC4(C3)CN(c3ncccn3)C4)n2-c2ccc(Cl)cc2CN1C(=O)C1(F)CC1 (stereo not drawn) [compound 175]", "< 6.00"),
]
